# procedureDetails: TRAIL sensitizers in caspase-8 expressing neuroblastoma cells, dose response, NB7 cells plus caspase-8, luminescence, panel (AID 652002)
# conditionSet: NB7 neuroblastoma +caspase-8, no TRAIL, compound-alone cytotoxicity counter-screen, luminescence viability, NB7+Caspase-8, run 1; at 12.5 µM (top of the series) unless noted
Label yes (1) when activity, % sensitization is strictly below 20%; otherwise label no (0).

API: query returns whether the compound falls strictly under 20% in activity, % sensitization. Query: COc1cccc(NC(=O)Nc2nccc(C)n2)c1
no (0)

API: query returns whether the compound falls strictly under 20% in activity, % sensitization. Query: CCOc1ccc(-c2nnc(-c3ccccc3)o2)cc1
yes (1)

API: query returns whether the compound falls strictly under 20% in activity, % sensitization. Query: Cc1nc2cc(NC(=O)c3ccco3)ccc2n1C
yes (1)

API: query returns whether the compound falls strictly under 20% in activity, % sensitization. Query: Cn1nnc(NC(=O)c2ccc(C(C)(C)C)cc2)n1
yes (1)

API: query returns whether the compound falls strictly under 20% in activity, % sensitization. Query: Cc1ccc(NC(=O)c2cc3ccccc3o2)nc1
no (0)

API: query returns whether the compound falls strictly under 20% in activity, % sensitization. Query: COC(=O)[C@]12CCCCC=C1N(Cc1cccc3ccccc13)C(=O)[C@H](CC(=O)NCc1ccc(OC)c(OC)c1)C2
yes (1)

API: query returns whether the compound falls strictly under 20% in activity, % sensitization. Query: Cc1cc(NC(=O)C2CCCC2)nc2c1c(=O)oc1ccccc12
yes (1)

API: query returns whether the compound falls strictly under 20% in activity, % sensitization. Query: CCCCc1nc(NCCN)c(C#N)c2c1CSC(C)(C)C2
yes (1)

API: query returns whether the compound falls strictly under 20% in activity, % sensitization. Query: CC1(C)N=C(N)N=C(N)N1c1ccc(Oc2ccc(Cl)cc2)c(Cl)c1
no (0)

API: query returns whether the compound falls strictly under 20% in activity, % sensitization. Query: COc1ccc(-c2cc(C(=O)N/N=C/c3cccnc3)c3ccccc3n2)cc1
no (0)

API: query returns whether the compound falls strictly under 20% in activity, % sensitization. Query: COc1ccc(-c2cc(C(=O)OCC(=O)Nc3ccc4c(c3)OCO4)c3ccccc3n2)cc1
no (0)

API: query returns whether the compound falls strictly under 20% in activity, % sensitization. Query: Cc1ccc(-n2nnc(-c3cccnc3Cl)n2)cc1
yes (1)

Data provenance: PubChem BioAssay
